Where do the numbers come from? From patent US5079247A.

Can you tell me inhibition at 100 µM for the items I'm about to list?
- targetEntity: thromboxane synthetase enzyme (Rattus norvegicus, UniProt P49430)
- Construct: The platelets were isolated by centrifuging the PRP for 10 minutes; from tissue; host or cells: washed platelets from arterial blood of Okamoto-Aoki spontaneously hypertensive rats (animals from Taconic Farms)
- Sequence (P49430 whole entry): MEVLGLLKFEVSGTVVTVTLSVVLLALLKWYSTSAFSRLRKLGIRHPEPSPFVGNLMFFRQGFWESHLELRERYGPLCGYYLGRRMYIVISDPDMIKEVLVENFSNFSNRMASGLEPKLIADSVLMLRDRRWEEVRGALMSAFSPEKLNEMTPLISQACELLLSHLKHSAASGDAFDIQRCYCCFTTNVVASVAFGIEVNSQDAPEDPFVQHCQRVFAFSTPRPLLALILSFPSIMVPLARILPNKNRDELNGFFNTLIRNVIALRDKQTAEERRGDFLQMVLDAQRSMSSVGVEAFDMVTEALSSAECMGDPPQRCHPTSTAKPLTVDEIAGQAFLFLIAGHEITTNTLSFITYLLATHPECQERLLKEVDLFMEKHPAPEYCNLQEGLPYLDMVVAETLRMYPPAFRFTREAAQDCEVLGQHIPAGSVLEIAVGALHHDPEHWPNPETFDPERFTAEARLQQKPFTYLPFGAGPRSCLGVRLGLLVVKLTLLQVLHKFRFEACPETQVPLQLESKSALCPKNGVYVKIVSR
- runDescription: Thromboxane synthetase enzyme inhibition (TXB2 formation in platelet suspension, RIA)
- Assay type: cell-based, Okamoto-Aoki spontaneously hypertensive rats (SHR)
- testParameters: concentration 1 × 10^-4 M; SHR platelet suspension, 10 minutes at 37° C.
Counter-ions that a name gives are not always drawn.
Give bare numbers, in %.

A selection of reference data follows.
N#CCCCCN1C(=NCCCn2ccnc2)c2cccc3cccc1c23	94
c1ccc(CCCN2C(=NCCCn3ccnc3)c3cccc4cccc2c34)cc1	92
CCCCCCN1C(=NCCCn2ccnc2)c2cccc3cccc1c23	94
CN1C(=NCCCCc2cccnc2)c2cccc3cccc1c23	100
CCCCCCN1C(=NCCCCc2cccnc2)c2cccc3cccc1c23	93
c1ccc(C(c2ccccc2)N2C(=NCCCn3ccnc3)c3cccc4cccc2c34)cc1	75

I'm hoping you can list inhibition at 100 µM for every compound here, please.
1. Cl.Cl.c1ccc(OCCCN2C(=NCCCn3ccnc3)c3cccc4cccc2c34)cc1 [Example 12, dihydrochloride]
2. c1ccc(CN2C(=NCCCCn3ccnc3)c3cccc4cccc2c34)cc1
3. c1cc2c3c(cccc3c1)N(CCN1CCOCC1)C2=NCCCn1ccnc1
4. N#CCCCCN1C(=NCCCCc2cccnc2)c2cccc3cccc1c23
5. c1ccc(CN2C(=NCCCn3ccnc3)c3cccc4cccc2c34)cc1
6. CN1C(=NCCCc2cccnc2)c2cccc3cccc1c23
7. CCN(CC)CCN1C(=NCc2cccnc2)c2cccc3cccc1c23

Found:
[90, 100, 96, 98, 90, 93, 91]

Give inhibition at 100 µM for each listed item.
1. CC(CCn1ccnc1)N=C1c2cccc3cccc(c23)N1C(c1ccccc1)c1ccccc1 (stereo not drawn)
2. c1cncc(CCCCN=C2c3cccc4cccc(c34)N2Cc2cccnc2)c1 [Example 31, dihydrochloride]

Found:
88
96
